Collected CC50 values appear next to each entry.
- assay method text: NOVARTIS: Cytotoxicity against human hepatocellular carcinoma cell line (Huh7)
- Assay type: toxicity, cell-based, Huh-7
- measurement parameters: Huh7 cells (hepatocellular carcinoma cell line)

>  <compound>
CCN(CC)c1ccc(C=C(C#N)c2nc3ccccc3[nH]2)o1

>  <CC50>
46.2 µM

$$$$
>  <compound>
C=CCOc1cccc(/C=C2/NC(C)=C(C(=O)OCC)C2=O)c1

>  <CC50>
> 10 µM

$$$$
>  <compound>
CSc1cccc(NC(=O)C2C3C=CC4(O3)C2C(=O)N(C2CC2)C4C(=O)NC2CCCCC2)c1 (stereo not given)

>  <CC50>
> 10 µM

$$$$
>  <compound>
CC(C)(C)NC(=S)Nc1cccc(Cl)c1Cl

>  <CC50>
> 100 µM

$$$$
>  <compound>
COc1ccc(C2CC(=O)C3=C(C2)NC(C)=C(C(=O)OC(C)C)C3c2cccc(Br)c2)cc1OC (stereo not given)

>  <CC50>
14.7 µM

$$$$
>  <compound>
O=C(NCc1ccco1)c1ccc(OC2CCN(CC3CCCCC3)CC2)c(Cl)c1

>  <CC50>
23.5 µM

$$$$
>  <compound>
CN(C=Cc1sc2ccc3ccccc3c2[n+]1C)c1ccccc1

>  <CC50>
64.3 µM

$$$$
>  <compound>
Oc1nc(-c2ccccn2)nc(C(F)(F)F)c1Br

>  <CC50>
> 8.27 µM

$$$$
>  <compound>
CC1=C(C(=O)OC(C)C)C(c2ccc([N+](=O)[O-])cc2)C2=C(CC(c3ccc(Cl)cc3)CC2=O)N1 (stereo not given)

>  <CC50>
> 100 µM

$$$$
>  <compound>
COc1cc(N)c(Cl)cc1C(=O)NCC1CCN(c2nc(C)cc(C)n2)CC1

>  <CC50>
64.9 µM

$$$$
>  <compound>
COc1ccc(CCNC(=O)Cn2c(C)cc3ccccc3c2=O)cc1OC

>  <CC50>
> 10 µM

$$$$
>  <compound>
Cc1cccc(CCNc2cc(C)nc3ncnn23)c1

>  <CC50>
> 100 µM

$$$$
>  <compound>
CC1(C)N=C(N)N=C(N)N1c1ccccc1

>  <CC50>
> 83.7 µM

$$$$
>  <compound>
CCOC(=O)C1=C(C)NC2=C(C(=O)CC(c3ccc(OC)c(OC)c3)C2)C1c1ccccc1F (stereo not given)

>  <CC50>
> 100 µM

$$$$
>  <compound>
CCCCCOC(=O)C1=C(C)NC2=C(C(=O)CC(C)(C)C2)C1c1ccncc1 (stereo not given)

>  <CC50>
> 100 µM

$$$$
>  <compound>
Cc1cc(N2CCCC2)nc2ccc(NC(=S)NCCN3CCc4ccccc4C3)cc12

>  <CC50>
21.5 µM

$$$$
>  <compound>
C[C@@H]1C[C@@H]([C@H](O)CC2CC(=O)NC(=O)C2)C(=O)[C@@H](C)C1 [CYCLOHEXIMIDE]

>  <CC50>
> 100 µM

$$$$
>  <compound>
CCCN(C(=O)C(=O)Nc1ccc2nc3n(c(=O)c2c1)CCCCC3)c1ccc(OCC)cc1

>  <CC50>
> 100 µM

$$$$
>  <compound>
CCCC(CCC)C(=O)Nc1ccc2c(c1)N(C(=O)CCCl)c1ccccc1CC2

>  <CC50>
> 100 µM

$$$$
>  <compound>
CCSC(Cl)=C(NC(=O)c1ccccc1)[P+](c1ccccc1)(c1ccccc1)c1ccccc1.[O-][Cl+3]([O-])([O-])[O-]

>  <CC50>
32.2 µM

$$$$

###

- Test system: Plasmodium falciparum
- assay method text: NOVARTIS: Inhibition of Plasmodium falciparum W2 (drug-resistant) proliferation in erythrocyte-based infection assay
- Format: functional, organism-based
- measurement parameters: Plasmodium falciparum, W2; read-out: EC50

>  <compound>
CC(NC(=O)c1cnn2c(C(F)(F)F)cc(-c3ccc(Br)cc3)nc12)c1ccccc1 (stereo not given)

>  <reported relation>
=

>  <EC50 [nM]>
1520

$$$$
>  <compound>
C=CCN1C=CC(=Cc2sc3ccccc3[n+]2C)c2ccccc21

>  <reported relation>
=

>  <EC50 [nM]>
125

$$$$
>  <compound>
O=C(NC(=CC=Cc1ccccc1)C(=O)N1CCCCC1)c1ccc([N+](=O)[O-])cc1

>  <reported relation>
=

>  <EC50 [nM]>
392

$$$$
>  <compound>
COc1ccccc1N(CC(=O)N1CCCCC1)S(=O)(=O)c1ccccc1

>  <reported relation>
>

>  <EC50 [nM]>
1070

$$$$
>  <compound>
Clc1ccc(NCn2nnc3ccccc32)nc1

>  <reported relation>
=

>  <EC50 [nM]>
1690

$$$$
>  <compound>
OCCN(CCO)CC(O)Cn1c2ccc(Br)cc2c2cc(Br)ccc21 (stereo not given)

>  <reported relation>
=

>  <EC50 [nM]>
1550

$$$$
>  <compound>
COC(=O)C1=C(C)NC2=C(C(=O)CC(c3ccc(OC)cc3)C2)C1c1ccc(F)cc1 (stereo not given)

>  <reported relation>
=

>  <EC50 [nM]>
54.7

$$$$
>  <compound>
COc1ccc(CN(Cc2cc3cc(OC)c(OC)cc3[nH]c2=O)C(=S)NCCc2ccc(OC)c(OC)c2)cc1

>  <reported relation>
=

>  <EC50 [nM]>
1040

$$$$
>  <compound>
O=C(Cn1c2ccccc2c(=O)c2ccc(Cl)cc21)Nc1ccc(C(F)(F)F)cc1

>  <reported relation>
=

>  <EC50 [nM]>
4540

$$$$
>  <compound>
COC(=O)C1=C(C)NC(=Cc2cc(C)n(-c3ccccc3C(F)(F)F)c2C)C1=O

>  <reported relation>
=

>  <EC50 [nM]>
71

$$$$

###

- assay method text: NOVARTIS: Cytotoxicity against human hepatocellular carcinoma cell line (Huh7)
- Type: toxicity, cell-based, Huh-7
- measurement parameters: Huh7 cells (hepatocellular carcinoma cell line)

>  <molecule>
O=C(NCCc1ccccc1)c1cnc(NCCCN2CCCC2)nc1NCC1CCCCC1

>  <CC50>
> 10 µM

$$$$
>  <molecule>
CC(=O)N(C)C1=C(N2CCCCCC2)C(=O)c2ccccc2C1=O

>  <CC50>
1.86 µM

$$$$
>  <molecule>
CC1CN(C(=O)C(Cc2c[nH]c3ccccc23)NC(=O)CCl)CCN1C(=O)Nc1ccccc1 (stereo unspecified)

>  <CC50>
> 10 µM

$$$$
>  <molecule>
Cc1ccc2nc(C)cc(NCCN(C)C)c2c1

>  <CC50>
59.1 µM

$$$$
>  <molecule>
CCCCCC(=O)Oc1ccccc1-c1nc2ccccn2c1NC(C)(C)CC(C)(C)C

>  <CC50>
> 10 µM

$$$$
>  <molecule>
Cc1ccc(-[n+]2c(-c3ccccc3)cn3c2CCCCC3)cc1

>  <CC50>
67.8 µM

$$$$
>  <molecule>
O=C(Nc1ccc(-c2ccc(Cl)cc2)cc1)c1cccs1

>  <CC50>
> 100 µM

$$$$
>  <molecule>
Cc1cc(C)c2c(c1)-c1c(ssc1=S)C(C)(C)N2C(=O)c1ccccc1

>  <CC50>
> 100 µM

$$$$
>  <molecule>
O=C1CSC(=NN=Cc2cccnc2)N1c1ccccc1

>  <CC50>
> 100 µM

$$$$
>  <molecule>
Cc1ccc(CNC(=O)c2cc(=O)[nH]c3ccc(S(=O)(=O)N4CCOCC4)cc23)cc1

>  <CC50>
> 10 µM

$$$$
>  <molecule>
O=C(NCCN1CCCCC1)c1ccc(OC2CCN(CC3CCCCC3)CC2)c(Cl)c1

>  <CC50>
5.37 µM

$$$$
>  <molecule>
COC(=O)C1=C(C)NC2=C(C(=O)CC(c3ccc(OC)c(OC)c3)C2)C1c1ccccc1C (stereo unspecified)

>  <CC50>
> 100 µM

$$$$
>  <molecule>
O=C(/C=C/Nc1ccccc1NS(=O)(=O)c1ccc([N+](=O)[O-])cc1)c1ccccc1

>  <CC50>
> 10 µM

$$$$
>  <molecule>
O=C(Nc1ccc(C2=NCCN2)cc1)c1ccc(-c2ccc(C(=O)Nc3ccc(C4=NCCN4)cc3)cc2)cc1

>  <CC50>
> 11.7 µM

$$$$
>  <molecule>
COC(=O)c1ccc(S(=O)(=O)N2CCC3(CC2)Nc2ccccc2-n2cccc23)cc1

>  <CC50>
> 10 µM

$$$$
>  <molecule>
Nc1nc(N)c2cc(S(=O)(=O)N3CCSCC3)ccc2n1

>  <CC50>
15.1 µM

$$$$
>  <molecule>
CC(=NOC(=O)c1ccco1)c1cnccn1

>  <CC50>
> 10 µM

$$$$
>  <molecule>
COc1ccc(OC)c(-c2ccc(O)c(CNCC3(N4CCCCC4)CCCCC3)c2)c1

>  <CC50>
38 µM

$$$$
>  <molecule>
CCOC(=O)C1=C(CC)NC2=C(C(=O)CC(C)(C)C2)C1c1ccc(Br)cc1 (stereo unspecified)

>  <CC50>
> 100 µM

$$$$
>  <molecule>
O=C(C1CCC1)N1CCN(c2ccccn2)CC1

>  <CC50>
> 10 µM

$$$$
>  <molecule>
CN(Cc1ccsc1)C(=O)CCc1nnc(CCCc2ccccc2)o1

>  <CC50>
> 10 µM

$$$$
>  <molecule>
Cc1ccc(Nc2nc(NCCO)c3ccccc3n2)cc1C

>  <CC50>
4.9 µM

$$$$
>  <molecule>
CCCc1cc2c(=O)c(-c3ccc4c(c3)OCO4)c(CC)oc2cc1OC(C)C

>  <CC50>
> 100 µM

$$$$
>  <molecule>
CC1CCN(Cc2c(O)ccc3cc(-c4nc5ccccc5s4)c(=O)oc23)CC1

>  <CC50>
> 100 µM

$$$$
>  <molecule>
COC(=O)c1sc2nc(CN(C)Cc3nccs3)ccc2c1NC(=O)c1ccc(C)s1

>  <CC50>
> 2.84 µM

$$$$
>  <molecule>
COc1cncc(-c2cncc(N3CCN(CCN(C)C)CC3)n2)c1

>  <CC50>
> 10 µM

$$$$
>  <molecule>
CC[C@H](C)C[C@H]1CC[C@](O)([C@](C)(O)C(=O)N[C@@H]2C(=O)N3NCCC[C@@H]3C(=O)N(O)[C@@H](C)C(=O)NCC(=O)N3NCCC[C@H]3C(=O)N(O)[C@H](C)C(=O)O[C@H]2C(C)C)O[C@@H]1C

>  <CC50>
0.465 µM

$$$$
>  <molecule>
COc1ccccc1NC(=O)c1cnn(-c2ccccc2)c1-n1cccc1

>  <CC50>
> 10 µM

$$$$
>  <molecule>
O=C(COc1cccc2ccccc12)NC1CCS(=O)(=O)C1 (stereo unspecified)

>  <CC50>
> 100 µM

$$$$
>  <molecule>
c1ccc2c(c1)OC13CCCCC1C2NCC3 (stereo unspecified)

>  <CC50>
48.6 µM

$$$$
>  <molecule>
CN(C)c1ccc(/C=C2/SC(=Nc3ccc(O)cc3)NC2=O)cc1

>  <CC50>
> 100 µM

$$$$
>  <molecule>
COc1cc(NC(C)CCCN(Cc2ccc(OC)c(OC)c2)C(=O)CC(C)CC(C)(C)C)c2ncccc2c1 (stereo unspecified)

>  <CC50>
5.89 µM

$$$$
>  <molecule>
CSc1cccc([C@@H]2C[C@H]3CN(c4ccccc4)C(=O)[C@]34CCCN24)c1

>  <CC50>
23.5 µM

$$$$
>  <molecule>
O=C(Cc1ccc(F)cc1Cl)N1CCN(c2cccc3c2C(=O)N(Cc2ccccn2)C3=O)CC1

>  <CC50>
> 10 µM

$$$$
>  <molecule>
Cc1ccccc1C=NNc1nc2ccccc2[nH]1

>  <CC50>
> 100 µM

$$$$
>  <molecule>
CC(C)N(CC(=O)Nc1cc(C(C)(C)C)nn1-c1ccc(Cl)c(Cl)c1)C(=O)c1ccc(C(C)(C)C)cc1

>  <CC50>
> 100 µM

$$$$
>  <molecule>
N=C(NN=Cc1ccc([N+](=O)[O-])cc1)NN=Cc1ccc([N+](=O)[O-])cc1

>  <CC50>
> 100 µM

$$$$
>  <molecule>
CCOC(=O)c1c(-c2ccc3c(c2)OCO3)[nH]c2cccc(OC)c2c1=O

>  <CC50>
> 10 µM

$$$$
>  <molecule>
Cc1ccc(C(=O)Oc2ccccc2-c2nc3ccccn3c2NC(C)(C)CC(C)(C)C)cc1[N+](=O)[O-]

>  <CC50>
> 10 µM

$$$$
>  <molecule>
CCCCCSc1scc(-c2ccc(O)c(O)c2)[n+]1C

>  <CC50>
> 100 µM

$$$$
>  <molecule>
O=c1nc(/C=C/c2ccc(Cl)cc2)oc2ccccc12

>  <CC50>
> 10 µM

$$$$
